Measured GI50 at 24 h, listed per entry for reference.
METHOD DESCRIPTION: Dark toxicity against human HepG2 cells assessed as growth inhibition after 24 hrs by SRB assay
Type: cell-based
Return type: number; implicit unit µM.

See these solved cases before continuing.
- MOL: "CCN1/C(=C/C2=C(N(CCO)CCO)C(=C/c3sc4ccccc4[n+]3CC)/C2=O)Sc2ccccc21"
  RESULT: 4.49
- MOL: "CCN1/C(=C/C2=C(N(C)CCO)C(=C/c3sc4ccccc4[n+]3CC)/C2=O)Sc2ccccc21"
  RESULT: 7.54
- MOL: "CCN1/C(=C/C2=C(NCCO)C(=C/c3sc4ccccc4[n+]3CC)/C2=O)Sc2ccccc21"
  RESULT: 7.83
- MOL: "CCN1/C(=C/C2=C(NC)C(=C/c3sc4ccccc4[n+]3CC)/C2=O)Sc2ccccc21"
  RESULT: 7.08

Could you share which GI50 at 24 h value was measured for `CCN1/C(=C/C2=C(N)C(=C/c3sc4ccccc4[n+]3CC)/C2=O)Sc2ccccc21` ?
4.57

----------
Measured GI50 at 24 h, listed per entry for reference.
METHOD DESCRIPTION: Dark toxicity against porcine PLP2 cells assessed as growth inhibition after 24 hrs by SRB assay
RECORDED CONDITIONS: Sus scrofa

Could you share which GI50 at 24 h value was measured for `CCN1/C(=C/C2=C(N(CCO)CCO)C(=C/c3sc4ccccc4[n+]3CC)/C2=O)Sc2ccccc21` ?
621 nM

Could you share which GI50 at 24 h value was measured for `CCN1/C(=C/C2=C(N)C(=C/c3sc4ccccc4[n+]3CC)/C2=O)Sc2ccccc21` ?
> 10000 nM

Could you share which GI50 at 24 h value was measured for `CCN1/C(=C/C2=C(NCCO)C(=C/c3sc4ccccc4[n+]3CC)/C2=O)Sc2ccccc21` ?
3730 nM

Could you share which GI50 at 24 h value was measured for `CCN1/C(=C/C2=C(NC)C(=C/c3sc4ccccc4[n+]3CC)/C2=O)Sc2ccccc21` ?
410 nM

Could you share which GI50 at 24 h value was measured for `CCN1/C(=C/C2=C(N(C)CCO)C(=C/c3sc4ccccc4[n+]3CC)/C2=O)Sc2ccccc21` ?
717 nM

----------
METHOD DESCRIPTION: Dark toxicity against human NCI-H460 cells assessed as growth inhibition after 24 hrs by SRB assay
Type: cell-based
ENDPOINT: GI50 at 24 h (nM)
Return type: number; implicit unit nM.

See these solved cases before continuing.
- MOL: "CCN1/C(=C/C2=C(N(C)CCO)C(=C/c3sc4ccccc4[n+]3CC)/C2=O)Sc2ccccc21"
  GI50 at 24 h / nM: 767
- MOL: "CCN1/C(=C/C2=C(N(CCO)CCO)C(=C/c3sc4ccccc4[n+]3CC)/C2=O)Sc2ccccc21"
  GI50 at 24 h / nM: 940

Could you share which GI50 at 24 h value was measured for `CCN1/C(=C/C2=C(NC)C(=C/c3sc4ccccc4[n+]3CC)/C2=O)Sc2ccccc21` ?
507

Could you share which GI50 at 24 h value was measured for `CCN1/C(=C/C2=C(NCCO)C(=C/c3sc4ccccc4[n+]3CC)/C2=O)Sc2ccccc21` ?
8820

----------
METHOD DESCRIPTION: Photocytotoxicity against porcine PLP2 cells assessed as growth inhibition preincubated for 24 hrs followed by irradiation with light at 23 to 24 uW/cm'2 for 30 mins measured after 24 hrs by SRB assay
RECORDED CONDITIONS: Sus scrofa
ENDPOINT: GI50 at 24 h
The reply must contain the numeric value and, after it, the unit.

See these solved cases before continuing.
- MOL: "CCN1/C(=C/C2=C(N)C(=C/c3sc4ccccc4[n+]3CC)/C2=O)Sc2ccccc21"
  ENDPOINT: "GI50 at 24 h"
  RESULT: "4980 nM"
- MOL: "CCN1/C(=C/C2=C(N(CCO)CCO)C(=C/c3sc4ccccc4[n+]3CC)/C2=O)Sc2ccccc21"
  ENDPOINT: "GI50 at 24 h"
  RESULT: "340 nM"
- MOL: "CCN1/C(=C/C2=C(N(C)CCO)C(=C/c3sc4ccccc4[n+]3CC)/C2=O)Sc2ccccc21"
  ENDPOINT: "GI50 at 24 h"
  RESULT: "471 nM"
- MOL: "CCN1/C(=C/C2=C(NC)C(=C/c3sc4ccccc4[n+]3CC)/C2=O)Sc2ccccc21"
  ENDPOINT: "GI50 at 24 h"
  RESULT: "126 nM"

Could you share which GI50 at 24 h value was measured for `CCN1/C(=C/C2=C(NCCO)C(=C/c3sc4ccccc4[n+]3CC)/C2=O)Sc2ccccc21` ?
385 nM
